Kindly supply the reported IC50 values for the records listed here.
# Test system: HSV-1
# TEST_METHOD_NOTES: HSV-1 ELISA in BSC-1 cells
# Format: cell-based, herpes simplex 1 (HSV-1)
# EXPERIMENTAL_SETUP: BSC-1 cells; ELISA
Output spec: scalar in µM, unitless text.

Which IC50 value belongs to Nc1nc(Cl)c2ncn(C=C3CC3CO)c2n1 (centres unmarked) ?
40

Item Nc1ncnc2c1ncn2C=C1CC1CO (centres unmarked) has what recorded IC50?
3.7

Request the reported IC50 associated with Nc1nc(NC2CC2)c2ncn(C=C3CC3CO)c2n1 (centres unmarked)
20

I'd like to know its IC50. The compound in question is COC(=O)[C@H](C)NP(=O)(OCC1CC1=Cn1cnc2c(N)ncnc21)Oc1ccccc1 (some centres unmarked) [4 (B = adenine), Example 14]
65

What value of IC50 has been recorded for this entry: COC(=O)[C@H](C)NP(=O)(OCC1CC1=Cn1cnc2c(N)nc(N)nc21)Oc1ccccc1 (some centres unmarked)
50

Record request: IC50 value, item COC(=O)[C@H](C)NP(=O)(OCC1CC1=Cn1cnc2c(N)ncnc21)Oc1ccccc1 (some centres unmarked) [3 (B = adenine), Example 13]
2.5
